The entries below come with measured Plant response rating, Goosegrass values attached.
Tested on: goosegrass (Eleusine indica)
Experimental Details: Test A1 postemergence, goosegrass
Format: in vivo
Measurement Setup: Postemergence, 125 g ai/ha; 0 to 100 scale
Please give the numeric answer without any surrounding text.

Examples from the recorded data:
# Molecule, Plant response rating, Goosegrass
rows = [
    ("CCOC(=O)N(c1cc(C(=O)N2CCC(c3ccccc3)CC2)c(C)cc1C)S(=O)(=O)C(F)(F)F", 0),
    ("CCC1ON=C(c2cc(NS(=O)(=O)C(F)(F)F)c(C)cc2C)C1CC (stereo not shown) [Compound 346]", 90),
]

Task: Look up Plant response rating, Goosegrass: CCC1CC(c2cc(NS(=O)(=O)C(F)(F)F)c(C)cc2C)=NO1 (stereo not shown)
Result: 90

Task: Using the record for `Cc1c(C(=O)N2CCSCC2)cc(N(COC(=O)C(C)(C)C)S(=O)(=O)C(F)(F)F)c(C)c1C` , report its Plant response rating, Goosegrass.
Result: 50

Origin of measurements: patent US20230278972A1
